tested on: OVCAR-4; assay: NCI tumour cell line growth inhibition, 48 h
Calls of active or inactive are those of the source. Rule as the data show it: active = GI50 up to about 1.1 µM and inactive = higher.
Tick one outcome: active, inactive

Past entries and their recorded results:
COMPOUND	QUALITATIVE LABEL
CO/C=C/C=C(\C#N)C(=O)OC	inactive
CCOC(=O)C(=Cc1ccccc1Cl)C(=O)OCC	inactive

[in] State the result this test recorded for CCOC(=O)CC(NC(=O)c1ccc(/N=N/N(C)C)cc1)C(=O)OCC (stereo not given) .
[out] inactive

[in] Hi, do you know how Nc1cc2c(C3OC(CO)C(O)C3O)n[nH]c2c(=S)[nH]1 (stereo not given) came out in this test?
[out] inactive

* * *

system: A498; assay: NCI tumour cell line growth inhibition, 48 h
Active and inactive are the calls of the source. Cut-off read from the data, not from the text of the source: active = GI50 up to about 1.1 µM and inactive = higher.
Return exactly one item of active, inactive

COMPOUND	SYSTEM NAME	QUALITATIVE LABEL
CC(=O)O/C=C\OC1CCCC1(c1ccccc1)c1ccccc1 (configuration not stated)	A498	inactive
CC(=O)n1cc(OP(=O)(Oc2ccccc2)Oc2ccccc2)c2ccccc21	A498	inactive
C#CCOCn1cnc2c(S)ncnc21	A498	inactive
CC[C@@]1(O)C(=O)OCc2c1cc1n(c2=O)Cc2cc3c(OC)cccc3nc2-1	A498	active
COc1ccc(OC)c(CC(=O)c2ccc(O)c(C(=O)NCCc3ccc(F)cc3)c2)c1	A498	inactive

[in] Give the logged outcome of this assay for the following compound: `C[C@@H]1OC(=O)C[C@H]2CC(=O)N(CCc3cn(S(=O)(=O)C(F)(F)F)c4ccccc34)C[C@@H]21`
[out] inactive

[in] For `c1ccc(/N=C2/SC3=Nc4cccc5cccc(c45)N3/C2=N/c2ccccc2)cc1` , what call appears in the results of this test?
[out] inactive

[in] Hello, I am checking results. What call was entered for `Clc1ccc(-c2cc(-c3cc(-c4ccc(Cl)cc4)[nH]n3)[nH]n2)cc1` ?
[out] inactive

* * *

tested on: DMS-114; test: NCI tumour cell line growth inhibition, 48 h
Calls of active or inactive are those of the source. Rule as the data show it: active = GI50 up to about 1.1 µM and inactive = higher.
Choose one outcome from this list and give only that: active, inactive

                                   molecule  qualitative_label
0  CC[C@@]1(O)C(=O)OCc2c1cc1n(c2=O)Cc2cc3c(OC)cccc3nc2-1             active

[in] Identify the outcome logged in this assay for the molecule shown: `Cc1nc(C)c(C(=O)Nc2cccc3c2C(=O)NC3=O)cc1C(=O)Nc1cccc2c1C(=O)NC2=O`
[out] inactive

[in] Status in this test for `CCCCOC(=O)NC(=O)c1cn(CCCOC(=O)NCCCCCCNC(=O)OCCCn2cc(C(=O)NC(=O)OCCCC)c(=O)[nH]c2=O)c(=O)[nH]c1=O` ?
[out] inactive

[in] Assay result, entry `Cc1cc2c(C(C)C)c(O)c(O)c(/C=N/c3ccccc3)c2c(O)c1-c1c(C)cc2c(C(C)C)c(O)c(O)c(/C=N/c3ccccc3)c2c1O` — outcome?
[out] inactive

[in] Fill in: this test's call for `O=C1/C(=C/c2ccccc2Cl)COc2ccc(Br)cc21` is ___
[out] inactive

[in] Dear colleague, could you share the recorded outcome for C=C(C)[C@H]1Cc2c(ccc3c2O[C@@H]2COc4cc(OC)c(OC)cc4[C@@H]2C3=O)O1 [ROTENONE] when you have a moment?
[out] active

[in] Record lookup: outcome of this test for `C1COCCSC2=C(SCCO1)SC(=C1SC3=C(SCCOCCOCCS3)S1)S2` ?
[out] inactive

[in] Outcome logged for `Cc1cc(C)c(C(=O)/C(=C/c2ccccc2)c2ccccc2)c(C)c1` in this assay:
[out] inactive
